Biological target: human mesothelin (recombinant, soluble) (human) (UniProt Q13421)
Sequence (Q13421 other isoform, or with tags, fused parts or gaps limits assumed): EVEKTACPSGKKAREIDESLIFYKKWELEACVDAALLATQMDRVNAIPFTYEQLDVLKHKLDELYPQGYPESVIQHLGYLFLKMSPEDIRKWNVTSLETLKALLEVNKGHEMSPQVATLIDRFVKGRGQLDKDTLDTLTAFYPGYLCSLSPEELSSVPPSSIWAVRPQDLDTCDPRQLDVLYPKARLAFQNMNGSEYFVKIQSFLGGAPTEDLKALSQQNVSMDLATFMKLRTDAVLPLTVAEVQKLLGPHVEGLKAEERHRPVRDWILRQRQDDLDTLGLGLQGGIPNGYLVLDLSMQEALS
Test: SPR BIAcore, parental mAb captured, mesothelin analyte
pKd: −log10 of the molar value.
pKd overview

- binder: "111B10 (rabbit-human chimeric anti-human mesothelin antibody) (antibody, from another filing, V domains shown) VH: QSVEESGGRLVTPGTPLTLTCTVSGFSLNNYAMSWVRQAPGKGLEWIGSISTGGLAFYANWAKGRFTISRTSTTVDLKMTSLTTEDTATYFCGRNGGGSYIFYYFDLWGQGTLVTVSS VL: AFELTQTPSSVEAAVGGTITIKCQASQSISSYLSWYQQKPGQPPKLLIYSASTLASGVSSRFKGSGSGTEYTLTISDLECADAATYFCQSYYDIGTSTFGGGTEVVVKR"
  pKd: 8.20
- binder: "33O11 zu (humanized anti-human mesothelin antibody) (antibody, from another filing, V domains shown) VH: EVQLVESGGGLVQPGGSLRLSCAASGISLSSDAISWVRQAPGKGLEYIGIINGGGNTYYASWAKGRFTISRHNSKNTLYLQMNSLRAEDTAVYYCARGIQHGGGNSDYYYYGMDLWGQGTLVTVSS VL: DIQMTQSPSSLSASVGDRVTITCQASQSISSVLSWYQQKPGKAPKLLIYLASTLASGVPSRFSGSGSGTDFTLTISSLQCEDIATYYCQTNYGTSSSNYGFAFGGGTKVEIKR"
  pKd: 8.47
- binder: "201C15 (rabbit-human chimeric anti-human mesothelin antibody) (antibody, from another filing, V domains shown) VH: QSVKESGGRLVTPGTPLTLTCTVSGIDLSSYAMGWFRQAPGKGLEYIGTINIGGRVYYASWAKGRFTISRTSTTVDLKAPSLTAEDTATYFCARYYNGGSYDIWGPGTLVTVSL VL: DVVMTQTPASASEPVGGTVTIKCQASESIYRVLAWYQQKPGQPPKLLIYDTSTLASGAPSRFKGSGYGTEFTLTISGVQCEDAATYYCQGGYYADSYGIAFGGGTEVVVKR"
  pKd: 8.96
- binder: "346C6 (rabbit-human chimeric anti-human mesothelin antibody) (antibody, from another filing, V domains shown) VH: QSVEESGGRLVKPDESLTLTCTASGFSLSSYAMIWVRQAPGEGLEWIGTISTGGITYYASWAKGRFTISKTSTTVDLKITSPTTEDTATYFCARGGYAASSAYYLPYYFDLWGQGTLVTVSS VL: AAVLTQTPSPVSAAVGGTVTISCQSSQSVYNNNNLAWFQQKPGQPPKLLIYLASTLASGVPSRFSGSGSGTQFTLTISGVQCDDAATYYCLGGCDDDADTFAFGGGTEVVVKR"
  pKd: 8.85

Data origin: patent US20210238304A1
